# assay details: Cytotoxicity against human HL60/MX2 cells after 48 hrs by cell titer-blue assay
# Assay type: functional, cell-based
# condition summary: HL60/MX2, 48 h
compounds and their reported EC50

[
  {
    "structure as smiles": "CC[C@]1(O)C[C@H]2CN(CCc3c([nH]c4ccccc34)[C@@](C(=O)OC)(c3cc4c(cc3OC)N(C=O)[C@H]3[C@@](O)(C(=O)OC)[C@H](OC(C)=O)[C@]5(CC)C=CCN6CC[C@]43[C@@H]65)C2)C1",
    "units symbol": "nM",
    "EC50": 60.9
  },
  {
    "structure as smiles": "Nc1nc2[nH]cnc2c(=S)[nH]1",
    "units symbol": "nM",
    "EC50": 3650
  },
  {
    "structure as smiles": "Nc1ccn([C@@H]2O[C@H](CO)[C@@H](O)[C@@H]2O)c(=O)n1",
    "units symbol": "nM",
    "EC50": 261
  },
  {
    "structure as smiles": "COc1cccc2c1C(=O)c1c(O)c3c(c(O)c1C2=O)C[C@@](O)(C(=O)CO)C[C@@H]3O[C@H]1C[C@H](N)[C@H](O)[C@H](C)O1",
    "units symbol": "nM",
    "EC50": 8050
  }
]
